test system: multi-drug resistant (MDR) human sarcoma cell line MES-SA/ADR; test: Inhibition of cell proliferation (GI50) in MES-SA/ADR cells; type: cell-based; conditions: Table IV, read-out: GI50 in Multi-Cancer Cells MES-SA/ADR
Structures can show the parent of a compound that is named as a salt.
Catalogue of compounds with associated GI50
Give just the number in nM; leave the unit off.

Look over these answered cases.
COMPOUND	GI50 / nM
COc1cc(N=[N+]=[N-])cc(Nc2ncnc3ccsc23)c1 [Example 71]	796
COc1cc(Nc2ncnc3ccsc23)cc(N(C)C)c1 [Example 69]	520
COc1cc(Nc2ncnc3ccsc23)cc(OC)c1 [Example 12, hydrochloride]	1200

Indicate the recorded GI50 value for this compound: COc1cc(Nc2nc(C)nc3ccsc23)cc(OC)c1 [Example 54]
2000

Indicate the recorded GI50 value for this compound: COc1ccc(OC)c(Nc2ncnc3ccsc23)c1 [Example 2]
7260

Indicate the recorded GI50 value for this compound: COc1cc(Nc2ncnc3ccsc23)cc(-n2cnnn2)c1 [Example 61]
767

---

Catalogue of molecules with associated EC50
System: human breast cancer cell line T-47D
Experiment: Caspase cascade activation (DEVD-R110 fluorogenic substrate) in T-47D cells
Format: cell-based
Settings: Homo sapiens, T47D, 24 h, T47D cells, 24 h; read-out: Caspase activation Potency EC50 T47D (24 h)
Procedure: Human breast cancer cell line T-47D, human lung cancer cell line H1299, human hepatocellular carcinoma cell line SNU398, human colon carcinoma cell line HCT116 were grown according to media component mixtures designated by American Type Culture Collection+10% FCS (Invitrogen Corporation), in a 5% CO2-95% humidity incubator at 37° C. […] After the 3 h incubation, the samples were read for fluorescence as above (T=3 h). […]
Give just the number in µM; leave the unit off.

COc1ccc(C(C)(C)C)cc1Nc1ncnc2ccsc12 5.24

Next:
Indicate the recorded EC50 value for this molecule: `COc1cc(Nc2ncnc3ccsc23)cc(-n2cnnn2)c1`
0.355

---

Tested on: human breast cancer cell line T-47D
Assay: Caspase cascade activation (DEVD-R110 fluorogenic substrate) in T-47D cells
Type: cell-based
Conditions: Homo sapiens, T47D, 24 h, T47D cells, 24 h; read-out: Caspase activation Potency EC50 T47D (24 h)
Method: Human breast cancer cell line T-47D, human lung cancer cell line H1299, human hepatocellular carcinoma cell line SNU398, human colon carcinoma cell line HCT116 were grown according to media component mixtures designated by American Type Culture Collection+10% FCS (Invitrogen Corporation), in a 5% CO2-95% humidity incubator at 37° C. […] After the 3 h incubation, the samples were read for fluorescence as above (T=3 h). […]
Counter-ions that a name gives are not always drawn.
Catalogue of compounds with associated pEC50
In simple prose, pEC50 is minus the logarithm base ten of a concentration in moles per litre.

COMPOUND	pEC50
COc1ccc(OC)c(Nc2ncnc3sccc23)c1 [Example 5, hydrochloride]	6.83
COc1ccc(OC)c(Nc2ncnc3cc(Br)sc23)c1	7.80
COc1ccc(Nc2nc(C)nc3sccc23)cc1	5.24
COc1ccc([N+](=O)[O-])cc1Nc1ncnc2ccsc12	5.29

Send back human breast cancer cell line T-47D pEC50 of `COc1cc(O)cc(Nc2ncnc3ccsc23)c1` only.
5.96

Send back human breast cancer cell line T-47D pEC50 of Brc1cccc(Nc2ncnc3ccsc23)c1 [Example 25, hydrochloride] only.
5.25

Send back human breast cancer cell line T-47D pEC50 of `COc1ccc(OC)c(Nc2nc(SC)nc3ccsc23)c1` only.
7.70

Send back human breast cancer cell line T-47D pEC50 of `COc1cc(Nc2nc(C)nc3cc(Br)sc23)cc(OC)c1` only.
7.49

---

Catalogue of compounds with associated EC50
test system: human breast cancer cell line T-47D; assay: Caspase cascade activation (DEVD-R110 fluorogenic substrate) in T-47D cells; format: cell-based; settings: Homo sapiens, T47D, 24 h, T47D cells, 24 h; read-out: Caspase activation Potency EC50 T47D (24 h)
Where a name gives a salt, the structure may show the parent alone.

Look over these answered cases.
COMPOUND	ASSAY RESULT
COc1ccc(Nc2nc(C)nc3scc(C)c23)cc1 [Example 13, hydrochloride]	> 10 µM
COc1ccc(OC)c(Nc2ncnc3c(C)csc23)c1	0.114 µM
COc1ccc(OC)c(Nc2ncnc3scc(C)c23)c1 [Example 6, hydrochloride]	> 10 µM
COc1ccc(OC)c(Nc2ncnc3c(C)c(I)sc23)c1 [Example 18, hydrochloride]	0.071 µM
COc1ccc(Nc2ncnc3ccsc23)c(OC)c1 [Example 8, hydrochloride]	> 10 µM

Indicate the recorded EC50 value for this compound: COc1cccc(Nc2ncnc3ccsc23)c1OC [Example 9, hydrochloride]
> 10 µM

Indicate the recorded EC50 value for this compound: `COc1ccc(Nc2ncnc3scc(C)c23)cc1`
> 10 µM

Indicate the recorded EC50 value for this compound: COc1ccc(Nc2ncnc3ccsc23)cc1 [Example 19, hydrochloride]
> 10 µM

Indicate the recorded EC50 value for this compound: `COc1ccc(N)cc1Nc1ncnc2ccsc12`
> 10 µM

Indicate the recorded EC50 value for this compound: `COc1cc(Nc2nc(C)nc3sccc23)cc(OC)c1`
0.112 µM

Indicate the recorded EC50 value for this compound: `COc1ccc(OC)c(Nc2nc(-c3ccccc3)nc3ccsc23)c1`
0.476 µM

Indicate the recorded EC50 value for this compound: `CCOC(=O)C=Cc1ccc(Nc2ncnc3ccsc23)cc1`
> 10 µM

Indicate the recorded EC50 value for this compound: COc1ccc(OC)c(Nc2ncnc3cc(I)sc23)c1 [Example 17, hydrochloride]
0.036 µM

Indicate the recorded EC50 value for this compound: `Oc1cc(O)cc(Nc2ncnc3ccsc23)c1`
> 10 µM

Indicate the recorded EC50 value for this compound: `COc1ccc(Cl)cc1Nc1ncnc2ccsc12`
> 10 µM

Indicate the recorded EC50 value for this compound: `COc1ccc(O)c(Nc2ncnc3ccsc23)c1`
> 10 µM

---

tested on: human colon carcinoma cell line HCT116; assay: Caspase cascade activation in HCT116 cells; assay type: cell-based; settings: Homo sapiens, HCT-116, 48 h, read-out: Caspase activation Potency EC50 HCT116 (48 h)
MEASUREMENT NAME: pEC50
In simple prose, pEC50 is minus the logarithm base ten of a concentration in moles per litre.

Indicate the recorded pEC50 value for this compound: COc1cc(Nc2ncnc3ccsc23)cc(-n2cnnn2)c1 [Example 61]
6.54

Indicate the recorded pEC50 value for this compound: COc1cc(Nc2ncnc3cc(I)sc23)cc(OC)c1 [Example 53]
5.61

---

tested on: human breast cancer cell line MX-1; experiment: Inhibition of cell proliferation (GI50) in MX-1 cells; assay type: cell-based; conditions: Table III, MX1 cells, 48 h, read-out: GI50 in Cancer Cells MX1
Counter-ions that a name gives are not always drawn.
MEASUREMENT NAME: GI50 (µM)
Give just the number in µM; leave the unit off.

Indicate the recorded GI50 value for this compound: COc1ccc(OC)c(Nc2ncnc3ccsc23)c1 [Example 2]
0.3

Indicate the recorded GI50 value for this compound: COc1ccc(OC)c(Nc2nc(C)nc3ccsc23)c1 [Example 1]
0.3

Indicate the recorded GI50 value for this compound: COc1ccc(OC)c(Nc2ncnc3sccc23)c1 [Example 5, hydrochloride]
0.3

---

Catalogue of compounds with associated EC50
System: human colon carcinoma cell line HCT116
Assay: Caspase cascade activation in HCT116 cells
Format: cell-based
Conditions: Homo sapiens, HCT-116, 48 h, read-out: Caspase activation Potency EC50 HCT116 (48 h)
Protocol: Human breast cancer cell line T-47D, human lung cancer cell line H1299, human hepatocellular carcinoma cell line SNU398, human colon carcinoma cell line HCT116 were grown according to media component mixtures designated by American Type Culture Collection+10% FCS (Invitrogen Corporation), in a 5% CO2-95% humidity incubator at 37° C. […] After the 3 h incubation, the samples were read for fluorescence as above (T=3 h). […]
Structures can show the parent of a compound that is named as a salt.

Indicate the recorded EC50 value for this compound: `CCOc1ccc(OCC)c(Nc2ncnc3ccsc23)c1`
> 10 µM

Indicate the recorded EC50 value for this compound: `COc1cc(Nc2nc(C)nc3ccsc23)cc(OC)c1`
0.061 µM

Indicate the recorded EC50 value for this compound: COc1ccc(OC)c(Nc2ncnc3c(C)c(I)sc23)c1 [Example 18, hydrochloride]
> 10 µM

Indicate the recorded EC50 value for this compound: `COc1cc(Nc2ncnc3cc(Br)sc23)cc(OC)c1`
> 10 µM

Indicate the recorded EC50 value for this compound: `Oc1cc(O)cc(Nc2ncnc3ccsc23)c1`
> 10 µM

Indicate the recorded EC50 value for this compound: `COc1cc(Nc2ncnc3sc(C)c(C)c23)cc(OC)c1`
> 10 µM

Indicate the recorded EC50 value for this compound: `CCOC(=O)C=Cc1ccc(Nc2ncnc3ccsc23)cc1`
> 10 µM

---

system: human breast cancer cell line T-47D; experiment: Caspase cascade activation (DEVD-R110 fluorogenic substrate) in T-47D cells; format: cell-based; conditions: Homo sapiens, T47D, 24 h, T47D cells, 24 h; read-out: Caspase activation Potency EC50 T47D (24 h)
Where a name gives a salt, the structure may show the parent alone.
MEASUREMENT NAME: EC50

Look over these answered cases.
COMPOUND	SUBJECT OF TEST	EC50
COc1ccc(OC)c(Nc2ncnc3sc(-c4ccccc4)c(C)c23)c1 [Example 16, hydrochloride]	human breast cancer cell line T-47D	> 10 µM
COc1ccc(OC)c(Nc2nc(C)nc3scc(C)c23)c1 [Example 7, hydrochloride]	human breast cancer cell line T-47D	> 10 µM

Indicate the recorded EC50 value for this compound: Cc1cc(Nc2ncnc3ccsc23)no1 [Example 21, hydrochloride]
> 10 µM
